Biological target: Protein translocase subunit SecA (Escherichia coli (strain K12))
Assay: Assay to Identify E. coli SecA ATPase Inhibitors
Format: functional
Set-up: scale not given: direction of the effect not stated beside the values
Settings: 30 µM
Potency and affinity values are given separately.
RESULT TYPE: Percent Effect (%)
Your answer should be a plain number; it is taken to be in %.

Problem: I am curious: what Percent Effect value has been reported for Cn1cc(C(=O)N[C@@H]2CN(Cc3cccs3)[C@@H]3CCCO[C@@H]32)cn1 ?
Result: -4.79

Problem: Can you look up the measured Percent Effect of CC(C)CC(=O)N1CCN(C(=O)N(C)C)CC2(CC(=O)N(C)C2)C1 (configuration not stated) for me?
Result: -2.6

Problem: Which Percent Effect is reported for this compound? CCCOCCN1CCC2(CC1)CC(c1ccccc1)C(=O)N2C (configuration not stated)
Result: 6.56

Problem: // returns reported Percent Effect for input CC(C)c1ncc2c(n1)CN(Cc1nc(Cc3ccccc3)no1)CC2
Result: -3.61

Problem: May I ask what Percent Effect has been recorded for Cc1cc(C(=O)NC2CCCN(c3ccccc3)C2=O)on1 (configuration not stated) ?
Result: -6.07

Problem: I have this compound here, Cc1cc(=O)n(CC(=O)NCC2CCCO2)c(-c2cccc(Cl)c2)n1 (configuration not stated) , and I need its recorded Percent Effect.
Result: -4.72

Problem: Given Cc1ccc(CN2CCc3ncnc(-c4cccnc4)c3CC2)o1 , state its recorded Percent Effect.
Result: -3.48

Problem: Which Percent Effect is reported for this compound? Cc1nc(CNCc2c(C)nn(C)c2N2CCOCC2)cs1
Result: -2.88

Problem: # query: Percent Effect of entry Cc1cccc(CCC(=O)N2CCCC(c3cc(C(N)=O)[nH]n3)C2)c1 (configuration not stated)
Result: -1.48

Problem: Looking for the measured Percent Effect of Cn1cc(C(=O)Nc2ccc3c(c2)CN(C(=O)c2ccco2)CC3)nn1 , can you help?
Result: -2.6

Problem: What does the data say about its Percent Effect? Entry: CCc1nc2n(n1)CC(NCc1ccnc(-c3ccccc3)n1)CC2 (configuration not stated)
Result: -0.451

Problem: Name the reported Percent Effect value associated with the compound Cc1ccc(NC2CCN(C(=O)c3cc[nH]n3)CC2)nn1
Result: -0.868

Problem: # input compound: CCn1cnnc1CNC(=O)c1ccc(Cl)cc1F ; wanted: its Percent Effect
Result: -2.15

Problem: If you can, please state the reported Percent Effect value of c1ccc(Cn2ccnc2CN2CCOC(Cn3cccn3)C2)cc1 (configuration not stated) .
Result: -9.1

Problem: Could you share which Percent Effect value was measured for Cc1cccc(-n2ncc(C(=O)N3CCn4c(C)nnc4C3)c2C)c1 ?
Result: -5.28

Problem: Quick check: Percent Effect of O=S(=O)(C1CC1)N1CC[C@]2(C[C@@H](Oc3ccccn3)CO2)C1 ?
Result: -2.9

Problem: Would you mind telling me what Percent Effect value was observed for CCc1ccc(C(=O)N2CCN(CC(C)O)CC2)o1 (configuration not stated) ?
Result: 0.315

Problem: I would be grateful if you could share the reported Percent Effect for NC(=O)CN1CCC(NC(=O)c2ccn(-c3cccc(F)c3)n2)CC1 .
Result: -1.05

Problem: Need Percent Effect of CN1CCC(NC(=O)NCc2csc(Br)c2)CC1 , thanks.
Result: -2.29

Problem: What measured Percent Effect goes with CCc1ccc(-n2c(=O)[nH]c3nc(N4CCSCC4)ncc3c2=O)cc1 ?
Result: -2.14

Problem: For the compound shown here, CCc1nc(NS(=O)(=O)c2cc(C)ccc2F)no1 , give the reported Percent Effect.
Result: -0.155

Problem: Which value of Percent Effect has been reported for O=C1N(Cc2ccccc2F)CCCC12CCN(C1CCSCC1)C2 (configuration not stated) in the records?
Result: -1.79

Problem: Fill blank: measured Percent Effect of the compound CC(=O)N(Cc1noc(C)n1)C1CCN(Cc2ccccc2C#N)C1 (configuration not stated) is ____.
Result: -1.89

Problem: Consider the compound shown here: O=C(Cc1ccc(F)cc1)N1CCn2cc(Cn3cccn3)nc2C1 What is its recorded Percent Effect?
Result: -3.25

Problem: I have this compound here, CCc1ncc2c(n1)CN(CC(=O)NCCOc1ccccc1)CC2 , and I need its recorded Percent Effect.
Result: -4.72

Problem: What measured Percent Effect goes with COCCN1CCC2(CCCN(C(=O)c3cnoc3C)C2)C1=O (configuration not stated) ?
Result: 0.295

Problem: Requested field: Percent Effect. Item: COc1ccccc1C(=O)N1Cc2cc(C)ccc2OCC1CN(C)C (configuration not stated)
Result: -0.165

Problem: Fill in: Percent Effect of CS(=O)(=O)N1Cc2nccn2CC(Cn2ncccc2=O)C1 (configuration not stated) is ___
Result: -1.2

Problem: // returns reported Percent Effect for input CSc1nccn1-c1cccc(C(=O)NCC2CC2)c1
Result: -4.93

Problem: Suppose we examine the compound Cc1nc[nH]c1-c1nc2cc(S(=O)(=O)N3CCCC3)ccc2n1C ; what Percent Effect value has been reported?
Result: -4.38

Problem: Could you share which Percent Effect value was measured for COc1ccc(CNC2CCN(CCc3ccncc3)CC2)cc1O ?
Result: -6.94

Problem: Report Percent Effect for COc1cc(C)sc1C(=O)N1CC(c2cccnc2)C1 please.
Result: -4.73

Problem: If you can, please state the reported Percent Effect value of Cc1ccc(C2CCCCCN2Cc2cn(C)nc2C)s1 (configuration not stated) .
Result: -9.52

Problem: For the compound shown here, CS(=O)(=O)NCC(=O)NC1CCc2nccn2C1 (configuration not stated) , give the reported Percent Effect.
Result: 0.138

Problem: Item O=C(NCC1CCN(C(=O)c2ccoc2)CC1)c1ccccc1Br has what recorded Percent Effect?
Result: -6.61

Problem: What measured Percent Effect goes with Cc1nnc(NC(=O)NCc2ccc(N3CCN(C)CC3)nc2)s1 ?
Result: -5

Problem: Return reported Percent Effect; argument: CCOCC(=O)N1C[C@@H]2COC[C@H](c3nc(C)no3)[C@@H]2C1
Result: -1.23

Problem: Param item = O=C(CCc1nccs1)N1CCC(N2CCNC2=O)CC1 ; retrieve measured Percent Effect.
Result: -3.04

Problem: What value of Percent Effect has been recorded for this entry: Cn1cccc1C(=O)Nc1cc(F)ccc1OCC1CCCO1 (configuration not stated)
Result: -2.17

Problem: I have this compound here, O=C(c1cncc(N2CCC(O)(CO)CC2)n1)N1CCCC1 , and I need its recorded Percent Effect.
Result: -4.63

Problem: What value of measured Percent Effect is listed for CO[C@H]1CCN(S(=O)(=O)c2cn(C)cn2)[C@H]1Cc1cnn(C)c1 ?
Result: -4.55

Problem: Would you kindly share the measured Percent Effect for O=C(NCCNCC1CNc2ccnn2C1)c1ccc(F)cc1 (configuration not stated) ?
Result: -2.2

Problem: State the recorded Percent Effect for this entry: CCc1ncncc1C(=O)N1CCN(Cc2c(C)noc2C)CC1
Result: -5.8

Problem: I would be grateful if you could share the reported Percent Effect for CN(C(=O)Cn1nc(-c2ccc(F)cc2)ccc1=O)C1CCS(=O)(=O)C1 (configuration not stated) .
Result: -7.39

Problem: # Percent Effect lookup, item CN(C)CC1CN(c2cnc3ccccc3n2)CCO1 (configuration not stated)
Result: -0.138

Problem: Quick check: Percent Effect of Cc1noc(C)c1CN1CC[C@H]2OCC[C@@H](C(=O)NCC3CC3)[C@@H]2C1 ?
Result: -4.39

Problem: Data request, read-out Percent Effect, for COC(=O)c1cccc(C(=O)N2CCCCC2CCn2ccnc2C)c1 (configuration not stated)
Result: -7.31

---

Molecular target: AMP-activated protein kinase, AMPK (Homo sapiens) (UniProt P54646+O43741+P54619+Q9UGJ0+Q9Y478+Q13131+Q9UGI9)
Experiment: AMP-dependent Kinase enzyme assay. An in vitro enzyme assay that detects ADP turnover that is directly proportional to AMPK activity. This uses naive AMPK that is activated during the assay with MK-8722
Assay type: functional
Design: scale not given: direction of the effect not stated beside the values
Conditions: 30 µM
RESULT TYPE: Percent Effect (%)
Number only, in %; omit the unit.

Problem: Name the reported Percent Effect value associated with the compound Cc1noc(Cl)c1CCC(=O)N1CCN(c2ncccn2)CC1
Result: -1.41

Problem: Field request: Percent Effect | item: COc1cccc(CCNC(=O)CN2CCCC2c2noc(C)n2)c1 (configuration not stated)
Result: 1.21

Problem: Suppose we examine the compound CCCc1noc(CCC(=O)N2CCCC2c2noc(C3CC3)n2)n1 (configuration not stated) ; what Percent Effect value has been reported?
Result: 1.8

Problem: May I ask what Percent Effect has been recorded for COc1ccc(CNCc2ccnc(N3CCOCC3)c2)c(OC)c1 ?
Result: -10.3

Problem: Value lookup for Percent Effect; key = CC(O)CN1CCN(C(=O)c2ccn(-c3cccc(Cl)c3)n2)CC1 (configuration not stated)
Result: 12.7

Problem: Suppose we examine the compound c1ccc(CN2CCCC(c3nccnc3-n3ccnc3)C2)cc1 (configuration not stated) ; what Percent Effect value has been reported?
Result: 4.45

Problem: Query (compound): CCc1nc(C2CCCN2CC(=O)Nc2c(C)nn(C)c2C)no1 (configuration not stated) ; field requested: Percent Effect
Result: -6.03

Problem: Give the measured Percent Effect of CCc1nc(CN2CCN(c3ncnc4cc(F)ccc34)CC2)no1 .
Result: -0.509

Problem: What does the data say about its Percent Effect? Entry: CCc1nc(CN2CCCN(C(=O)C(C)COC)CC2)cs1 (configuration not stated)
Result: -9.16

Problem: Which Percent Effect value belongs to O=S(=O)(NCC1(O)CCOc2ccccc21)c1cccs1 (configuration not stated) ?
Result: 3.61

Problem: # lookup: Percent Effect of Cc1nn(C)c(C)c1C1CCCN1CC(=O)NC(C1CC1)C1CC1 (configuration not stated)
Result: -8.63

Problem: Entry under review: CCN1CCN(C2CCN(Cc3cc(C)on3)CC2)C1=O . Reported Percent Effect?
Result: 1.9
